- MEASURED_TARGET: Melanin-concentrating hormone receptor 1 (Homo sapiens, UniProt Q99705)
- Sequence (Q99705 whole entry): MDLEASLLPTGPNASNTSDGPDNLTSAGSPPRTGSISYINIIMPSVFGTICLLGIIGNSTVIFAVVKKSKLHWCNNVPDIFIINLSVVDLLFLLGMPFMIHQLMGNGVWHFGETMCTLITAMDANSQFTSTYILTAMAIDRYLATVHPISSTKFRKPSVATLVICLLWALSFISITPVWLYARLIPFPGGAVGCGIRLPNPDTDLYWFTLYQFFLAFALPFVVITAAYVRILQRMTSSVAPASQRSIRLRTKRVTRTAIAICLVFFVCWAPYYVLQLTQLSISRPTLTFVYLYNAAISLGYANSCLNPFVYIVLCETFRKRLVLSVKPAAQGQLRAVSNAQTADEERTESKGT
- ASSAY_OVERVIEW: Inhibition of MCH-mediated calcium release in whole IMR32 cells by FLIPR
- Assay type: functional, cell-based, IMR-32
Field: pIC50. Provide a value for each of the compounds that follow.
The read-out pIC50 is expressed as -log10 of concentration in moles per litre.

Query block: API: value(readout= pIC50, system= Melanin-concentrating hormone receptor 1 (Homo sapiens, UniProt Q99705), query= Cn1c(=O)cc(NC2CCN(C/C=C/c3ccccc3)CC2)c2cc(Cl)ccc21 )
Result block: 7.06

Query block: Then Cn1c(=O)nc(NC2CCN(Cc3ccc4ccccc4c3)CC2)c2cc(Cl)ccc21 ?
Result block: 7.14

Query block: Then Cn1c(=O)nc(NC2CCN(Cc3ccc4ncccc4c3)CC2)c2cc(Cl)ccc21 ?
Result block: 7.18

* * *

Field: Ki. Provide a value for each of the compounds that follow.
- MEASURED_TARGET: Voltage-gated inwardly rectifying potassium channel KCNH2 (Homo sapiens)
- Sequence (Q12809 whole entry): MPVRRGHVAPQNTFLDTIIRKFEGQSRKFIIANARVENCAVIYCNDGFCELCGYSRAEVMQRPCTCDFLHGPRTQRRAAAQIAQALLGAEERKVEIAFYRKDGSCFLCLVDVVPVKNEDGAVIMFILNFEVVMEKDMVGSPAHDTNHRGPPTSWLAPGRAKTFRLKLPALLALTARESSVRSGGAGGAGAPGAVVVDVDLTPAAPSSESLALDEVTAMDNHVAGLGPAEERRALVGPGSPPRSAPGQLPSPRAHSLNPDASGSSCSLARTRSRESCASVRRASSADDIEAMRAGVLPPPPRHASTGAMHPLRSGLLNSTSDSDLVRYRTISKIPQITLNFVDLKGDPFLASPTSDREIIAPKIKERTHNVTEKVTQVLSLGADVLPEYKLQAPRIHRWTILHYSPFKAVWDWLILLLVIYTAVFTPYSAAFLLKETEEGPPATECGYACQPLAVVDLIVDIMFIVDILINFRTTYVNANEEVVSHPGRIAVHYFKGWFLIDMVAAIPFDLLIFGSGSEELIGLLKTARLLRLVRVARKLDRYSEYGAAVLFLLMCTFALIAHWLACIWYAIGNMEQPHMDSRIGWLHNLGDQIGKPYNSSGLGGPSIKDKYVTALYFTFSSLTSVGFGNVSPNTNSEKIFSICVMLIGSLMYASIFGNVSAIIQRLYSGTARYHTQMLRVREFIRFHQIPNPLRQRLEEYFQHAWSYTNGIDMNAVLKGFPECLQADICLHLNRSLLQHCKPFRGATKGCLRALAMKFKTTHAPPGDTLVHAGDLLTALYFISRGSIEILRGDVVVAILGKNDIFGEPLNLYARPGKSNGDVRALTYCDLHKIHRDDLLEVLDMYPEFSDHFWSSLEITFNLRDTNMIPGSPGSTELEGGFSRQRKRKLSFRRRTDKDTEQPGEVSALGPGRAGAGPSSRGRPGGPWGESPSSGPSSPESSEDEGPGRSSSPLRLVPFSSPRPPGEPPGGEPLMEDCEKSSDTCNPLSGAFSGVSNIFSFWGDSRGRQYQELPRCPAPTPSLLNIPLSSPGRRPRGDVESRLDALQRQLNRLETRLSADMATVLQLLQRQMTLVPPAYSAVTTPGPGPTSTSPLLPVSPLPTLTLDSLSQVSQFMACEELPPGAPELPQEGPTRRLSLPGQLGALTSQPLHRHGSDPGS
- ASSAY_OVERVIEW: Binding affinity to hERG stably transfected in HEK293 cells
Provide only the numeric value, understood in nM.

Query block: Returns the measured Ki for the input compound. Input: O=c1cc(NC2CCN(Cc3ccc4c(c3)OCO4)CC2)c2cc(Cl)ccc2n1Cc1ccccc1
Result block: 280

Query block: Then COC(=O)c1c(NC2CCN(Cc3ccc4c(c3)OCO4)CC2)c2cc(Cl)ccc2n(C)c1=O ?
Result block: 1440

Query block: Then COc1ccc2c(c1)c(NC1CCN(Cc3ccc4c(c3)OCO4)CC1)cc(=O)n2C ?
Result block: 778
